# Test system: UACC-62 melanoma
# ASSAY PROTOCOL: NCI tumour cell line growth inhibition, 48 h
OBSERVATION TYPE: TGI (µM)
The response must be a number in µM with no trailing unit.

Request: Indicate the recorded TGI value for this compound: `Cc1ccnc(Nc2ccc([N+](=O)[O-])c(NCCN3CCOCC3)n2)c1`
Result: 18.3

Request: Indicate the recorded TGI value for this compound: `COc1cc2cc3c(c(O)c2c(O)c1-c1c(OC)cc2cc4c(c(O)c2c1O)C(=O)O[C@H](C)C4)C(=O)O[C@H](C)C3`
Result: 32.5

Request: Indicate the recorded TGI value for this compound: `Cc1ccc(-n2cc(-c3ccc(Cl)cc3)c3c(=N)n(N)cnc32)cc1`
Result: 26.4

###

# System: LOX IMVI melanoma
# ASSAY PROTOCOL: NCI tumour cell line growth inhibition, 48 h; in the data active = GI50 below about 0.43 µM; inactive = the rest
Write down one outcome, taken from 1.0 = active, 0.0 = inactive

Example entries and their recorded answers appear below.
# COMPOUND, CATEGORY
rows = [
    ("CC1=C(CNO)C2=C(C)C3(CC3)[C@@](C)(O)C(=O)C2=C1", 0.0),
    ("O=C(N/N=C/c1ccc(F)cc1)c1ccc(C(F)(F)F)nc1Nc1cccc(C(F)(F)F)c1", 0.0),
    ("CCN1CCN(c2nc(NNC(=O)c3ccccc3)nc(N3CCN(C(c4ccccc4)c4ccccc4)CC3)n2)CC1", 0.0),
    ("COc1cc(/C=C\\c2cc(OC)c(OC)c(OC)c2)cc(NS(=O)(=O)c2ccc(Cl)cc2)c1OC", 0.0),
    ("CC1OC(OC2C(O[C@H]3CC[C@@]4(C)C(=CC[C@H]5[C@@H]6C[C@@H]7O[C@]8(CC[C@@H](C)CO8)[C@@H](C)[C@@H]7[C@@]6(C)CC[C@@H]54)C3)OC(CO)C(OC3OC(CO)C(O)C3O)C2O)C(O)C(O)C1O (stereo partly drawn)", 1.0),
]

Request: Which outcome did this test record for the compound `O=C(C(=O)c1cc(Br)ccc1O)c1cc(Br)ccc1O` ?
Result: 0.0

Request: Which outcome did this test record for the compound `Cc1ccnc(Nc2ccc([N+](=O)[O-])c(NCCN3CCOCC3)n2)c1` ?
Result: 1.0

###

# System: M14 melanoma
# ASSAY PROTOCOL: NCI tumour cell line growth inhibition, 48 h
List of TGI values.

# MOLECULE, ENDPOINT RESULT
rows = [
    ("O=c1cccccc1[O-].O=c1cccccc1[O-].O=c1cccccc1[O-].[Sm+3]", "> 100 µM"),
    ("S=c1[nH]n2c(COc3cc(Cl)c(OCc4nnc5sc(=S)[nH]n45)cc3Cl)nnc2s1", "> 100 µM"),
    ("Cc1ccc(-n2cc(-c3ccc(Cl)cc3)c3c(=N)n(N)cnc32)cc1", "17.2 µM"),
]

Request: Indicate the recorded TGI value for this molecule: `C=CCN1C(=O)CC(=O)N(NC2=NNC3(C(=O)N2)c2ccccc2-c2ccccc23)C1=S`
Result: > 100 µM

Request: Indicate the recorded TGI value for this molecule: `c1ccc(-c2c(-c3[nH]c4ccccc4c3-c3ccccc3)[nH]c3ccccc23)cc1`
Result: 14.9 µM

Request: Indicate the recorded TGI value for this molecule: CCCCCCCCCCCCC1N=C(N)NC2(CCCO2)C1C(=O)OC (centres undefined)
Result: 16.6 µM

Request: Indicate the recorded TGI value for this molecule: `Fc1ccc(-c2nn3c(COc4ccc(Cl)cc4)nnc3s2)cc1Oc1ccccc1`
Result: > 79.3 µM

Request: Indicate the recorded TGI value for this molecule: `COc1ccc(Cc2nc3cc(OC)c(OC)cc3c(=O)[nH]2)cc1`
Result: > 41.2 µM

Request: Indicate the recorded TGI value for this molecule: CC(=O)OCC1OC(n2c(=S)n(-c3ccccc3)c(=O)c3cc(Br)cc(Br)c32)C(OC(C)=O)C(OC(C)=O)C1OC(C)=O (centres undefined)
Result: > 100 µM

###

# Test system: SF-539 CNS
# ASSAY PROTOCOL: NCI tumour cell line growth inhibition, 48 h
List of TGI values.
The response must be a number in µM with no trailing unit.

// below: answered compounds
# COMPOUND, TGI (µM)
measured = [
    ("O=C(c1ccccc1)C(Br)C(Br)c1ccccc1 (stereo not given)", 22.6),
    ("C[C@]12CCC3=NCCN3C1=CC[C@@H]1[C@@H]2CC[C@@]2(C)[C@H]1CC[C@]2(C)O", 80),
]

Kindly consider the entry below.
Request: Indicate the recorded TGI value for this compound: `NC(N)=N/N=C/c1c(-c2ccncc2)nc2sc(Cl)cn12`
Result: 13.7

###

List of TGI values.
# Test system: MCF7 breast
# ASSAY PROTOCOL: NCI tumour cell line growth inhibition, 48 h

# STRUCTURE SMILES STRING, TGI
data = [
    ("Cc1ccc(S(=O)(=O)N2CCC(C(=O)O)(c3ccccc3)CC2)cc1", "> 100 µM"),
    ("C[C@]12CCC3=NCCN3C1=CC[C@@H]1[C@@H]2CC[C@@]2(C)[C@H]1CC[C@]2(C)O", "> 100 µM"),
]

Kindly consider the entry below.
Request: Indicate the recorded TGI value for this compound: `Fc1ccc(-c2nn3c(COc4ccc(Cl)cc4)nnc3s2)cc1Oc1ccccc1`
Result: > 48.3 µM

###

# Tested on: A549 NSCLC
# ASSAY PROTOCOL: NCI tumour cell line growth inhibition, 48 h; in the data active = GI50 below about 0.43 µM; inactive = the rest
Write down one outcome, taken from active, inactive

Request: Which outcome did this test record for the compound C#Cc1cccc(NC(=O)C2CCCN(C(=O)CCl)C2)c1 (stereo not drawn) ?
Result: inactive

Request: Which outcome did this test record for the compound `C#CC#CC#CC#CC#CC#CC#CC#CC[C@@H]1OC[C@@H](COC(=O)O[C@@H](C(=O)O[C@H]2C[C@@]3(O)[C@@H](OC(=O)c4ccccc4)[C@@H]4[C@]5(OC(C)=O)CO[C@@H]5C[C@H](O)[C@@]4(C)C(=O)[C@H](OC(C)=O)C(=C2C)C3(C)C)[C@@H](NC(=O)c2ccccc2)c2ccccc2)O1` ?
Result: active

Request: Which outcome did this test record for the compound `CC1(C)CC[C@]2(C(=O)O)CC[C@]3(C)C(=CC[C@@H]4[C@@]5(C)C/C(=C/c6ccco6)C(=O)C(C)(C)[C@@H]5CC[C@]43C)[C@@H]2C1` ?
Result: inactive

Request: Which outcome did this test record for the compound `COc1cc(OC)cc(-c2ccc(-c3ccc(C(=N)N)cn3)s2)c1` ?
Result: inactive

Request: Which outcome did this test record for the compound `N#CC(NC(=O)CCl)=C(Cl)Cl` ?
Result: inactive

Request: Which outcome did this test record for the compound `C=C(Cn1c2ccccc2c(=O)c2ccccc21)c1ccc(C(=O)Nc2ccccc2N)cc1` ?
Result: inactive

Request: Which outcome did this test record for the compound `C=CCN=C(N/N=C/c1ccc([N+](=O)[O-])o1)NS(=O)(=O)c1cc(C(=O)Nc2ccccc2)c(Cl)cc1SCC(N)=O` ?
Result: inactive

Request: Which outcome did this test record for the compound CCCCCCCCCCCCOC1C(C(CC(=O)N2CCN(Cc3ccc4c(c3)OCO4)CC2)NS(=O)(=O)c2cc(Cl)cc(Cl)c2)OC2OC(C)(C)OC21 (stereo not drawn) ?
Result: inactive

###

# System: LOX IMVI melanoma
# ASSAY PROTOCOL: NCI tumour cell line growth inhibition, 48 h
List of TGI values.

// below: answered compounds
# COMPOUND, TGI
rows = [
    ("CCN(CC)CCNc1ccc([N+](=O)[O-])c2sc3cc(Cl)ccc3c(=O)c12", "> 100 µM"),
    ("N/C(=N\\C(N)=N\\c1nc2ccccc2s1)c1cnccn1", "> 100 µM"),
    ("CCOc1ccc(Nc2nc(-c3c(C)nc4ncccn34)cs2)cc1", "17.2 µM"),
    ("CC(=O)C(C(C)=O)[C@H]1OC(C)(C)O[C@H]1[C@H]1COC(C)(C)O1", "> 100 µM"),
    ("COc1cc(N(CCC#N)CCC#N)ccc1/C(N=Nc1ccc(C(=O)O)cc1)=N/NC(=O)c1cc(Br)ccc1O", "> 150 µg/mL"),
]

Request: Indicate the recorded TGI value for this compound: O=C(O)CCC1NC(/C(=C/c2ccccc2O)NC(=O)c2ccccc2)OC1=O (stereo not given)
Result: > 100 µM

Request: Indicate the recorded TGI value for this compound: `Nc1nc(=S)[nH]c(C(=O)Nc2nccs2)c1-c1ccccc1`
Result: > 100 µM

Request: Indicate the recorded TGI value for this compound: `N#CCCN(CCC#N)c1ccc(C=Nc2ccc(F)cc2)cc1`
Result: > 100 µM

Request: Indicate the recorded TGI value for this compound: COC(=O)[C@]1(C)CCC[C@]2(C)[C@@H]1CCC13C[C@@H](C=CO1)[C@@H](C)CC32O (stereo not given in full)
Result: > 100 µM

Request: Indicate the recorded TGI value for this compound: O=C(c1ccccc1)C(Br)C(Br)c1ccccc1 (stereo not given)
Result: 3.41 µM
